tgt: MMP-19 (Homo sapiens)
Sequence (Q99542 98-508): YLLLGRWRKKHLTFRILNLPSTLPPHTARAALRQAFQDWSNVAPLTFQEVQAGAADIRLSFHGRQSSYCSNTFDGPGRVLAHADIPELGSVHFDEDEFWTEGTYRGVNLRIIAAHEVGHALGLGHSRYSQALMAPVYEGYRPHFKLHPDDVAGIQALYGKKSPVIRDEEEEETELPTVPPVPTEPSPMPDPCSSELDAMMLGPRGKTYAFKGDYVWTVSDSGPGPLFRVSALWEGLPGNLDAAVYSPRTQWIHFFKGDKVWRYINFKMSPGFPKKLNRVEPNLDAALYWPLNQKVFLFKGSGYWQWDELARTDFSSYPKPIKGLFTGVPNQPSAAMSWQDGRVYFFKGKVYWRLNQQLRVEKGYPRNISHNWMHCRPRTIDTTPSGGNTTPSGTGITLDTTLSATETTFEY
test.protocol: Fluorometric substrate assay (MMP inhibitor profiling kit)
conditions.used: human recombinant MMP-19, 60 min preincubation, four-parameter fit
outcome.measure: IC50
// unit must come after the numeric part

Query :: Given the entry C[C@@H]1CCO[C@H]2Cn3cc(C(=O)NCc4ccc(F)cc4F)c(=O)c(O)c3C(=O)N12 , report its measured IC50.
Result :: 54 µM

====

test.protocol: PK and BD of DTG during pregnancy
Format: in vivo, mouse
conditions.used: female, C3H/HeJ, mouse, placenta / dam plasma, oral, 50 mg/kg; GD 16.5
outcome.measure: Kp
// no unit, no text: just the number

Query :: # Kp lookup, item C[C@@H]1CCO[C@H]2Cn3cc(C(=O)NCc4ccc(F)cc4F)c(=O)c(O)c3C(=O)N12
Result :: 0.12

Hello, the source for this data is paper PMC8599359, in case you need it.
